Target: T1, MBP-AtTZF1 RR-TZF (Arabidopsis thaliana, UniProt O82307 86-195)
T1 sequence: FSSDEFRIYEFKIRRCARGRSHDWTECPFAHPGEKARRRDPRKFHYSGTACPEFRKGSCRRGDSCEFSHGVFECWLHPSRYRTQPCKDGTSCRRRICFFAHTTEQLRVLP
Assay: fluorescence anisotropy
property label: Kd (nM)

# binder, uom, quantitative result
rows = [
    ("UUUUUUUUUUUUUUUUUUU (ssRNA) [Fl-polyU]", "nM", 470),
    ("UAUUUAUUAUUUAUUUAUU (ssRNA) [Fl-ARE19]", "nM", 410),
]
